Read-out: CD69, CD69 (gene 969)
Assay: BSK_SAg_CD69: BioMAP Diversity Plus: SAg Assay for CD69 Biomarker Activity (AID 2283089)
Settings: primary human HUVEC with PBMC; actives raise or lower the signal
Protocol: BSK_SAg is a cell-based, multiplexed-readout assay that uses umbilical vein endothelium and peripheral blood mononuclear cells, a human vascular primary cell co-culture, with measurements taken at 24 hours after chemical dosing in a 96-well plate.BSK_SAg_CD69 is one of 10 assay component(s) measured or calculated from the BSK_SAg assay. […] This assay endpoint, BSK_SAg_CD69, was analyzed with bidirectional fitting relative to DMSO as the negative control and baseline of activity. […]
Active and inactive are the calls of the source. Rule for the calls: active = hit-call score of the fitted dose curve at least 0.9, where 1 is the maximum; inactive = score below 0.9.
A correct response names exactly one class from yes (active), no (inactive)

Which outcome was entered for the compound CC(C)C1(C)N=C(c2nc3ccccc3cc2C(=O)O)NC1=O (stereo not drawn) in this test? no

Which outcome was entered for the compound `Cc1ccc(-c2c(Cl)nc(C#N)n2S(=O)(=O)N(C)C)cc1` in this test? yes

Which outcome was entered for the compound `Cc1cc(Cl)ccc1OCC(=O)O` in this test? no

Which outcome was entered for the compound `CCCN(CCC)c1c([N+](=O)[O-])cc(S(N)(=O)=O)cc1[N+](=O)[O-]` in this test? yes

Which outcome was entered for the compound `CS/C(C)=N/OC(=O)N(C)SN(C)C(=O)O/N=C(\C)SC` in this test? yes

Which outcome was entered for the compound `COC(=O)C=C(C)OP(=O)(OC)OC` in this test? no

Which outcome was entered for the compound `Fc1ccc(Oc2ccnc3cc(Cl)cc(Cl)c23)cc1` in this test? yes

Which outcome was entered for the compound CC1COC(Cn2cncn2)(c2ccc(Oc3ccc(Cl)cc3)cc2Cl)O1 (stereo not drawn) in this test? yes

Which outcome was entered for the compound CCOC(=O)C(Cl)Cc1cc(-n2nc(C)n(C(F)F)c2=O)c(F)cc1Cl (stereo not drawn) in this test? no

Which outcome was entered for the compound N#Cc1nn(-c2c(Cl)cc(C(F)(F)F)cc2Cl)c(N)c1S(=O)C(F)(F)F (stereo not drawn) in this test? yes

Which outcome was entered for the compound `CO/C=C(/C(=O)OC)c1ccccc1Oc1cc(Oc2ccccc2C#N)ncn1` in this test? yes

Which outcome was entered for the compound `CCCCOC(=O)c1ccccc1C(=O)OCCCC` in this test? no

Which outcome was entered for the compound `O=C(Nc1ccccc1)Nc1ccnc(Cl)c1` in this test? yes

Which outcome was entered for the compound COP(N)(=O)SC (stereo not drawn) in this test? no

Which outcome was entered for the compound `N#Cc1cc(Br)c(O)c(Br)c1` in this test? yes

Which outcome was entered for the compound `CN(C)C(=S)SSC(=S)N(C)C` in this test? yes

Which outcome was entered for the compound COC(=O)C(C)Oc1ccc(Oc2ccc(Cl)cc2Cl)cc1 (stereo not drawn) in this test? no

Which outcome was entered for the compound `C=CCC1=C(C)[C@@H](OC(=O)[C@@H]2[C@@H](C=C(C)C)C2(C)C)CC1=O` in this test? yes

Which outcome was entered for the compound Cc1c(F)c(F)c(COC(=O)C2C(/C=C(\Cl)C(F)(F)F)C2(C)C)c(F)c1F (stereo not drawn) in this test? yes

Which outcome was entered for the compound `CCCCNC(=O)n1c(NC(=O)OC)nc2ccccc21` in this test? no

Which outcome was entered for the compound `COc1cnc(OC)n2nc(NS(=O)(=O)c3c(OCC(F)F)cccc3C(F)(F)F)nc12` in this test? no

Which outcome was entered for the compound `COP(=S)(OC)Oc1nc(Cl)c(Cl)cc1Cl` in this test? no

Which outcome was entered for the compound `COc1nc(C)nc(NC(=O)NS(=O)(=O)c2ccccc2Cl)n1` in this test? no

Values were extracted from PubChem BioAssay (EPA / NIEHS).
